protocol.text: Measurement of logP values by HPLC on reversed phase columns (EEC directive 79/831 Annex V.A8)
Type: physicochemical
applied.conditions: pH 2.7
Please use yes whenever logP is not below 3, and no whenever it is.

| compound | category |
| --- | --- |
| C=C(C)CN(CC)C(=O)c1cc(-c2ncnc(Nc3cccc(Cl)c3)n2)ccn1 [Example B156] | yes |
| CCN(CC)C(=S)c1cc(-c2ncnc(Nc3cccc(F)c3)n2)ccn1 [Example B11] | yes |
| CCN(CC)C(=O)c1cc(-c2ncnc(Nc3cccc(OC(F)(F)F)c3)n2)ccn1 [Example B263] | yes |
| O=C(c1cc(-c2ncnc(Nc3cccc(Cl)c3)n2)ccn1)N1CC=CCC1 [Example B153] | yes |
| CN(CC(F)F)C(=O)c1cc(-c2ncnc(Nc3cccc(C(F)F)c3)n2)ccn1 [Example B371] | no |
| CCCC(C)NC(=O)c1cc(-c2ncnc(Nc3ccc(F)c(Cl)c3)n2)ccn1 (centres unmarked) [B200] | yes |
| CN(C)C(=O)c1cc(-c2ncnc(Nc3cccc(Cl)c3)n2)ccn1 [Example B150] | no |
| O=C(NCCCN1CCCCCC1=O)c1cc(Nc2nccc(-c3ccnc(C(=O)NCCCN4CCCCCC4=O)c3)n2)ccn1 [Example A21] | no |
| CN(CC1CC1)C(=O)c1cc(-c2ncnc(Nc3ccc(F)cc3)n2)ccn1 [Example B17] | no |
| CC(C)CN(C)C(=O)c1cc(-c2ncnc(Nc3cccc(C#N)c3)n2)ccn1 [Example B295] | no |
| CN(CC1CC1)C(=O)c1cc(-c2ncnc(Nc3ccccc3)n2)ccn1 [Example B313] | no |
| COc1cccc(Nc2ncnc(-c3ccnc(C(=O)N(C)C)c3)n2)c1 [Example B276] | no |
| CCN(C)C(=S)c1cc(-c2ncnc(Nc3cccc(C(F)(F)F)c3)n2)ccn1 [Example B257] | yes |
| CCCN(C)C(=S)c1cc(-c2ncnc(Nc3cccc(Cl)c3)n2)ccn1 [Example B336] | yes |
| O=C(NCCCN1CCCCCC1=O)c1cc(-c2ccnc(Nc3ccnc(Cl)c3)n2)ccn1 [Example A20] | no |

----------
protocol.text: Measurement of logP values by HPLC on reversed phase columns (EEC directive 79/831 Annex V.A8)
Type: physicochemical
applied.conditions: pH 2.7

| compound | logP |
| --- | --- |
| COC(=O)c1cc(-c2ncnc(Nc3cccc(C(F)F)c3)n2)ccn1 | 2.55 |
| CN(CCC#N)C(=O)c1cc(-c2ncnc(Nc3ccc(F)c(Cl)c3)n2)ccn1 | 2.58 |
| CC(C)CN(C)C(=O)c1cc(-c2ncnc(Nc3cccc(C(F)F)c3)n2)ccn1 | 3.04 |
| CC(C)NC(=O)c1cc(-c2ncnc(Nc3cccc(Cl)c3)n2)ccn1 | 3.62 |
| CSc1cccc(Nc2ncnc(-c3ccnc(C(=O)NCC4CC4)c3)n2)c1 | 3.64 |
| C#CCN(c1cccc(Cl)c1)c1ncnc(-c2ccnc(C(=O)N(C)CCC#N)c2)n1 | 2.77 |
| CN(C)C(=O)c1cc(-c2ncnc(Nc3ccc(F)cc3)n2)ccn1 | 2.02 |
| CCC(COC)NC(=O)c1cc(-c2ncnc(Nc3ccc(F)c(Cl)c3)n2)ccn1 (stereo not drawn) | 3.89 |
| COc1ccc(Nc2ncnc(-c3ccnc(C(=O)N(C)C)c3)n2)cn1 | 1.57 |
| CSc1cccc(Nc2ncnc(-c3ccnc(C(=O)NC(C)C)c3)n2)c1 | 3.53 |
| CCN(C)C(=O)c1cc(-c2ccnc(Nc3ccnc(C(F)(F)F)c3)n2)ccn1 | 2.22 |
| CCCN(CC)C(=O)c1cc(-c2ncnc(Nc3cccc(Cl)c3)n2)ccn1 | 3.46 |
| C#CCON=C(C)c1cc(-c2ncnc(Nc3cccc(Cl)c3)n2)ccn1 (mixture of isomers) | 3.98 |
| O=C1CN(C(=O)c2cc(-c3ncnc(Nc4cccc(Cl)c4)n3)ccn2)CN1 | 2.15 |
| CC(C)N(C)C(=O)c1cc(-c2ncnc(Nc3ccc(F)c(F)c3)n2)ccn1 | 2.78 |
| Cc1ccc(Nc2ncnc(-c3ccnc(C(=O)NCCCN4CCCCCC4=O)c3)n2)cc1Cl | 3.44 |
| CCN(C)C(=S)c1cc(-c2ncnc(Nc3ccc(F)cc3)n2)ccn1 | 2.8 |
| CC(C)CN(C)C(=O)c1cc(-c2ncnc(Nc3ccc(F)c(C(F)F)c3)n2)ccn1 | 3.15 |

Reference for the values: patent US20110218188A1
